Below is a list of entries, each paired with its recorded activity change, negative = inhibition value.
- test-method-notes: T. gondii ME49Luc in HeLa cells, luciferase assay, 72 h, no IFN-y (AID 1259421)
- reported-conditions: hits give low values, concentration not given here
In all, about 6,400 compounds went through this assay and about 610 (9.5%) were called active. The full list was thinned out, with actives kept by preference.
endpoint: activity change, negative = inhibition (%)

* O=S1(=O)N[C@H]2CCCN2c2ccccc21 | 1.4
* CCC(C(=O)O)c1ccc(N2Cc3ccccc3C2=O)cc1 (configuration not stated) | 122
* COc1ccc(S(=O)(=O)N2CCCN(S(=O)(=O)c3ccc(OC)c(OC)c3)CC2)cc1OC | 0.269
* COC1=CC(=O)C(=O)C/C1=C\C=C\c1ccccc1 | -4.53
* OC[C@H]1O[C@H](O[C@H]2O[C@H](CO)[C@@H](O)[C@H](O)[C@H]2O)[C@H](O)[C@@H](O)[C@@H]1O | 7.53
* Cn1nnc(-c2ccc(-c3ccc(N4C[C@H](CO)OC4=O)cc3F)cn2)n1 | 60.5
* COc1cc(N)c(Cl)cc1C(=O)N[C@@H]1CCN(CCCOc2ccc(F)cc2)C[C@@H]1OC | 6.27

Source: PubChem BioAssay AID1259421
